biological target: 15-PGDH (Homo sapiens (Human), UniProt P15428)
Sequence (P15428 whole entry): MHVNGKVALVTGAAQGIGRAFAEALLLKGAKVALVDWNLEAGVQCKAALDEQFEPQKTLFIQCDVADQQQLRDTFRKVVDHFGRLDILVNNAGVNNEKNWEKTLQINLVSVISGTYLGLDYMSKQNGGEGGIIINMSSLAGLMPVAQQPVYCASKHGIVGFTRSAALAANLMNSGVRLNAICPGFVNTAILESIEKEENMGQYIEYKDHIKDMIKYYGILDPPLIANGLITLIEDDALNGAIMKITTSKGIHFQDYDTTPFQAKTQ
Measured Attribute: pIC50
Numbers only, as −log10 of the molar value.

# example entries with known answers
• O=C(CCc1ccccc1)Oc1ccc(/C=C2\SC(=O)NC2=O)c(Cl)c1 [Compound 103] = 7.06
• O=C1NC(=O)/C(=C/c2ccc(OC(=O)C3CCCC3)cc2Cl)S1 [Compound 93] = 7.15
• CCOc1cc(/C=C2\SC(=O)NC2=O)ccc1OC(=O)CCCCc1ccccc1 [Compound 60] = 7.23
• O=C1NC(=O)/C(=C/c2cccc(OC(=O)C3CC3)c2Cl)S1 [Compound 76] = 6.27

Hey, can you go through the list below and give me pIC50 for every item?
1. O=C(CCCCc1ccccc1)Oc1ccc(/C=C2\SC(=O)NC2=O)c(Cl)c1 [Compound 105]
2. COc1cc(/C=C2\SC(=O)NC2=O)ccc1OC(=O)c1ccccc1.O=C(O)c1ccccc1 [Compound 41]
3. O=C(Cc1ccccc1)Oc1ccc(/C=C2\SC(=O)NC2=O)cc1Br [Compound 27]
4. CCOc1cc(/C=C2\SC(=O)NC2=O)ccc1OC(=O)C1CCCC1 [Compound 48]
5. O=C(CC1CCCCC1)Oc1cccc(/C=C2\SC(=O)NC2=O)c1Cl [Compound 82]

**A:**
1. 6.89
2. 6.82
3. 7.39
4. 5.85
5. 7.49

###

Consider the following IC50 values measured on 15-PGDH (Homo sapiens (Human)).

Below: 2 compounds and their reported IC50.
• COc1cc(/C=C2\SC(=O)NC2=O)ccc1OC(=O)CC1CCCC1 = 60.2 nM
• O=C(CCc1ccccc1)Oc1cccc(/C=C2\SC(=O)NC2=O)c1Cl = 22.5 nM

List the reported IC50 of each compound below.
1. O=C(CCCCC1CCCCC1)Oc1cccc(/C=C2\SC(=O)NC2=O)c1Cl
2. COc1cc(/C=C2\SC(=O)NC2=O)ccc1OC(=O)CCCCc1ccccc1
3. O=C1NC(=O)/C(=C/c2ccc(OC(=O)C3CC3)c(Br)c2)S1
4. O=C1NC(=O)/C(=C/c2cccc(OC(=O)C3CCC3)c2Cl)S1
5. O=C1NC(=O)/C(=C/c2ccc(OC(=O)C3CCCCC3)cc2)S1

**A:**
1. 25.6 nM
2. 38.9 nM
3. 220 nM
4. 482 nM
5. 88.8 nM

Value sought for every listed compound: IC50.
1. COc1cc(/C=C2\SC(=O)NC2=O)ccc1OC(=O)CCCCC1CCCCC1
2. O=C(CCCCc1ccccc1)Oc1ccc(/C=C2\SC(=O)NC2=O)cc1Cl
3. COc1cc(/C=C2\SC(=O)NC2=O)ccc1OC(=O)CCCC1CCCCC1
4. O=C(O)c1ccccc1.O=C1NC(=O)/C(=C/c2cccc(OC(=O)c3ccccc3)c2Cl)S1
5. CCOc1cc(/C=C2\SC(=O)NC2=O)ccc1OC(=O)CC1CCCC1
6. O=C(CC1CCCCC1)Oc1ccc(/C=C2\SC(=O)NC2=O)c(Cl)c1

**A:**
1. 28.2 nM
2. 44 nM
3. 17.5 nM
4. 54.1 nM
5. 128 nM
6. 27.7 nM

###

Target or system 15-PGDH (Homo sapiens (Human), UniProt P15428); recorded quantity IC50.
One number for each entry, in nM.

In the examples that follow, each entry is paired with its recorded IC50.
- O=C(CC1CCCCC1)Oc1ccc(/C=C2\SC(=O)NC2=O)cc1Br: 20.6
- O=C1NC(=O)/C(=C/c2ccc(OC(=O)C3CCCC3)c(Br)c2)S1: 50
- O=C1NC(=O)/C(=C/c2ccc(OC(=O)C3CC3)cc2)S1: 1410
- O=C1NC(=O)/C(=C/c2ccc(OC(=O)C3CCCC3)cc2)S1: 179
- O=C(Cc1ccccc1)Oc1ccc(/C=C2\SC(=O)NC2=O)cc1Cl: 63.5

// batch mode: one IC50 value per listed entry
1. O=C(CCCCc1ccccc1)Oc1ccc(/C=C2\SC(=O)NC2=O)cc1Br
2. COc1cc(/C=C2\SC(=O)NC2=O)ccc1OC(=O)CC1CCCCC1
3. O=C1NC(=O)/C(=C/c2ccc(OC(=O)C3CC3)c(Cl)c2)S1
4. O=C(Cc1ccccc1)Oc1ccc(/C=C2\SC(=O)NC2=O)c(Cl)c1

**A:**
[23.5, 27.8, 2090, 75.3]
